study-target: KRAS G12S (Homo sapiens (Human), UniProt P01116+P62937, G12S)
Sequence (P01116-2 other isoform, or with tags, fused parts or gaps G12S): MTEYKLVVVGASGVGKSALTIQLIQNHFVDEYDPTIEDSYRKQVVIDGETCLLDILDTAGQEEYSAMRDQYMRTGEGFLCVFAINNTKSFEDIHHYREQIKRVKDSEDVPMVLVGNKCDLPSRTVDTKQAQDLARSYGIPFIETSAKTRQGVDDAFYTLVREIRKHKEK
Sequence (P62937 whole entry): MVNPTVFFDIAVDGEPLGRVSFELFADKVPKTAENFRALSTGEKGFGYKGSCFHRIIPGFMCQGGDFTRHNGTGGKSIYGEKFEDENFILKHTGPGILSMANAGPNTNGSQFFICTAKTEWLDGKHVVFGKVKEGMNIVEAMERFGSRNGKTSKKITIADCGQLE
experiment-summary: Ras-Raf (BRAF RBD) disruption / FRET / MOA assay, KRAS G12S
Type: biochemical
conditions: Ras-Raf disruption/FRET/MOA assay; class symbols; read-out: KRAS G12S FRET data IC50

compound	study-target	IC50
C=CC(=O)N1CC2(CCN2C(=O)N(C)[C@H](C(=O)N[C@H]2Cc3cccc(c3)-c3ccc4c(c3)c(c(-c3cccnc3[C@H](C)OC)n4CC)CC(C)(C)COC(=O)[C@@H]3CCCN(N3)C2=O)C(C)C)C1 (atropisomer, axis not shown) [Example A684]	KRAS G12S (Homo sapiens (Human), UniProt P01116+P62937, G12S)	100 to 1000 nM
C=CC(=O)N1C[C@H](C)[C@H](C(=O)N(C)[C@H](C(=O)N[C@H]2Cc3cc(O)cc(c3)-c3ccc4c(c3)c(c(-c3ccccc3CN(C)C)n4CC)CC(C)(C)COC(=O)[C@@H]3CCCN(N3)C2=O)C(C)C)C1 [Example A052]	KRAS G12S (Homo sapiens (Human), UniProt P01116+P62937, G12S)	100 to 1000 nM
CCn1c(-c2cccnc2[C@H](C)OC)c2c3cc(ccc31)C1=CCCN(C1)C[C@H](NC(=O)[C@@H](COC1CN(C(=O)C#CC(C)(C)N(C)C)C1)C(C)C)C(=O)N1CCC[C@H](N1)C(=O)OCC(C)(C)C2 (atropisomer, axis not shown) [Example A663]	KRAS G12S (Homo sapiens (Human), UniProt P01116+P62937, G12S)	> 10000 nM
CCn1c(-c2cccnc2[C@H](C)OC)c2c3cc(ccc31)-c1cc(O)cc(c1)C[C@H](NC(=O)[C@H](C(C)C)N(C)C(=O)C1CN(C(=O)/C=C/CN(C)C)C1)C(=O)N1CCC[C@H](N1)C(=O)OCC(C)(C)C2 (atropisomer, axis not shown) [Example A257]	KRAS G12S (Homo sapiens (Human), UniProt P01116+P62937, G12S)	100 to 1000 nM
CC#CC(=O)N1CC[C@H](C(=O)N(C)[C@H](C(=O)N[C@H]2Cc3nc(ns3)-c3ccc4c(c3)c(c(-c3cccnc3[C@H](C)OC)n4CC)CC(C)(C)COC(=O)[C@@H]3CCCN(N3)C2=O)C(C)C)C1 (atropisomer, axis not shown) [Example A289]	KRAS G12S (Homo sapiens (Human), UniProt P01116+P62937, G12S)	> 10000 nM
CO[C@@H](C)c1ncccc1-c1c2c3cc(ccc3n1CC(F)(F)F)-c1cccc(c1)CN(NC(=O)[C@@H](COC1CN(C(=O)C#CC(C)(C)N(C)C)C1)C(C)C)C(=O)N1CCC[C@H](N1)C(=O)OCC(C)(C)C2 (atropisomer, axis not shown) [Example A601]	KRAS G12S (Homo sapiens (Human), UniProt P01116+P62937, G12S)	1000 to 10000 nM
C=CC(=O)N1CCC12CN(C(=O)N(C)[C@H](C(=O)N[C@H]1Cc3nc(cs3)-c3ccc4c(c3)c(c(-c3cccnc3[C@H](C)OC)n4CC)CC(C)(C)COC(=O)[C@@H]3CCCN(N3)C1=O)C(C)C)C2 (atropisomer, axis not shown) [Example A393]	KRAS G12S (Homo sapiens (Human), UniProt P01116+P62937, G12S)	100 to 1000 nM
C=CC(=O)N1CC[C@H](C(=O)N(C)[C@H](C(=O)N[C@H]2Cc3nc(cs3)-c3ccc4c(c3)c(c(-c3cccnc3[C@H](C)OC)n4CC)CC(C)(C)COC(=O)[C@@H]3CCCN(N3)C2=O)C(C)C)C1 (atropisomer, axis not shown) [Example A279]	KRAS G12S (Homo sapiens (Human), UniProt P01116+P62937, G12S)	> 10000 nM

Data provenance is patent US11566007B2.
